System: Fibroblast
testDescription: Multiplex assay against human fibroblast
Assay type: toxicity, cell-based
testConditions: 24 h, 10 µM, compound concentration 10 uM, replicate 2
// values below are reported Population Pyknosed Nuclei (%)
Answer with a number only, understood to be in %.

Some molecules with known Population Pyknosed Nuclei (%) results, for comparison:
# molecule, numericResult
records = [
    ("CNC(=O)Nc1ccc2c(c1)[C@@]1(CC2)OC(=O)N(CC(=O)N(Cc2ccc(F)cc2)[C@@H](C)C(F)(F)F)C1=O", 4),
    ("CC(C)c1noc(N2CCC(COc3ccc(-c4ccc(S(C)(=O)=O)cc4)nc3)CC2)n1", 13),
    ("O=c1cc(N2CCOCC2)oc2c(-c3cccc4c3sc3ccccc34)cccc12", 63),
    ("COc1ccc(-c2ccc3ncc4c(c3c2)n(-c2ccc(N3CCNCC3)c(C(F)(F)F)c2)c(=O)n4C)cn1.O=C(O)/C=C\\C(=O)O", 9),
    ("CCc1nn(CCCN2CCN(c3cccc(Cl)c3)CC2)c(=O)n1CCOc1ccccc1.Cl [NEFAZODONE HYDROCHLORIDE]", 20),
]

Please provide the recorded Population Pyknosed Nuclei (%) for COC(=O)C1=C(C)NC(C)=C(C(=O)OCCCN2CCC(c3ccccc3)(c3ccccc3)CC2)[C@H]1c1cccc([N+](=O)[O-])c1 , tested on Fibroblast.
33

Please provide the recorded Population Pyknosed Nuclei (%) for CC(C)CC(=O)Nc1[nH]nc2c1CN(C(=O)C1CCN(C)CC1)C2(C)C , tested on Fibroblast.
6

Please provide the recorded Population Pyknosed Nuclei (%) for COc1cc2ncn(-c3cc(OCc4ccccc4C(F)(F)F)c(C(N)=O)s3)c2cc1OC [GW843682X] , tested on Fibroblast.
17

The reported numbers originate from ChEMBL document CHEMBL4689842.
